test system: MC-38; experiment: Antiproliferative activity against mouse MC38 cells after 48 hrs by CCK-8 assay; assay type: functional, cell-based; settings: MC-38, 48 h
reportedEndpoint: pIC50
FYI, pIC50 means -log10 of a concentration in mol per litre.

Solved cases (4 shown):
smilesnotation=O=C(CCCCCCOc1cccc(-c2nnc(-c3ccccc3Cl)s2)c1)NO reportedendpoint=pIC50 experimentalresult=4.80
smilesnotation=O=C(CCCCCCOc1ccc(-c2nnc(-c3ccccc3)s2)cc1)NO reportedendpoint=pIC50 experimentalresult=4.85
smilesnotation=O=C(CCCCOc1cccc(-c2nnc(-c3ccccc3)s2)c1)NO reportedendpoint=pIC50 experimentalresult=5.15
smilesnotation=O=C(CCCCCCOc1cccc(-c2nnc(-c3ccccc3)s2)c1)NO reportedendpoint=pIC50 experimentalresult=5.62

// switching to the query compound
So the reported pIC50 for O=C(CCCCCOc1cccc(-c2nnc(-c3ccccc3)s2)c1)NO , on MC-38, turned out to be 6.37

* * *

Reported IC50 is given for each of the following molecules.
biological target: Histone deacetylase (HDAC1 and HDAC2) (Homo sapiens, UniProt Q13547+Q92769); experiment: Inhibition of HDAC1/HDAC2 in human HeLa cell nuclear extract using Boc-Lys(Ac)-AMC as substrate and measured by fluorometric method; format: cell-based
Report only the number, with the unit nM understood.

smilesnotation=O=C(CCCCCOc1cccc(-c2nnc(-c3ccccc3)s2)c1)NO systemname="Histone deacetylase (HDAC1 and HDAC2) (Homo sapiens, UniProt Q13547+Q92769)" reportedendpoint=IC50 unitofmeasure=nM experimentalresult=38

Let us move to another entry and its IC50.
For reference, reported IC50 for O=C(CCCCCOc1cccc(-c2nnc(-c3ccccc3Cl)s2)c1)NO stands at 339

* * *

biological target: Protein deacetylase HDAC6 (Homo sapiens); test: Inhibition of HDAC6 in human HeLa cell nuclear extract using Boc-Lys(Ac)-AMC or Boc-Lys(triflouroacetyl)-AMC as substrate incubated for 30 mins and measured by fluorescence assay
Sequence (Q9UBN7 whole entry): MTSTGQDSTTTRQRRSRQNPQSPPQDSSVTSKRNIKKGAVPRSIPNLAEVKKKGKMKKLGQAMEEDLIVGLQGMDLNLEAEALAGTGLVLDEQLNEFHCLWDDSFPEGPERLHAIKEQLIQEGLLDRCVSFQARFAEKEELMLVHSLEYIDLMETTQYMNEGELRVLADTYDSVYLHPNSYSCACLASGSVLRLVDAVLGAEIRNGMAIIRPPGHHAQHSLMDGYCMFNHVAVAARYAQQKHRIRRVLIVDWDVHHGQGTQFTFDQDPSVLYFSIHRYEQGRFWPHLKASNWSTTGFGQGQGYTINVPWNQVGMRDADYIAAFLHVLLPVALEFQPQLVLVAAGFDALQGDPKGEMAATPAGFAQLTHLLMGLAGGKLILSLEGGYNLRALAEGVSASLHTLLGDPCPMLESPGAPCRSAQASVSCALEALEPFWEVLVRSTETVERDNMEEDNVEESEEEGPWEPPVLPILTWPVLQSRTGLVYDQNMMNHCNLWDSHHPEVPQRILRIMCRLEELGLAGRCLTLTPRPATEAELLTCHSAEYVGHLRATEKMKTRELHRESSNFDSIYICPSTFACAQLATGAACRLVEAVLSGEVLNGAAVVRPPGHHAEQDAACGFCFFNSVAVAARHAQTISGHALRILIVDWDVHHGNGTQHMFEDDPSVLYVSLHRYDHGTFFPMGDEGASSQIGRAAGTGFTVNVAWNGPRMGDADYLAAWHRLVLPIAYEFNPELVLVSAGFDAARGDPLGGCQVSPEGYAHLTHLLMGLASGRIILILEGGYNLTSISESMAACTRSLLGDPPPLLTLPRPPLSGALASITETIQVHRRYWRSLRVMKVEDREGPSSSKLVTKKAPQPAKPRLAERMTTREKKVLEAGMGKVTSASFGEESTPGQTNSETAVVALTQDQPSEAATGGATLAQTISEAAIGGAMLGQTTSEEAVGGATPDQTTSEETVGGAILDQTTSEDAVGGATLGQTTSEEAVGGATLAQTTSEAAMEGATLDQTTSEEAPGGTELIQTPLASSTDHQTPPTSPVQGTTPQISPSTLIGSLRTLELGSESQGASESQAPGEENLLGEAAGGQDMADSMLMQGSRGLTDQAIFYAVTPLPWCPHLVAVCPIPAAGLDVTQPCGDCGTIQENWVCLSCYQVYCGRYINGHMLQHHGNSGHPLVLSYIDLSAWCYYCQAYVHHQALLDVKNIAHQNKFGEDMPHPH
Here, each record is paired with measured pIC50 data.
Scale note: pIC50 = -log10(concentration in M).

pIC50 recorded for this compound, O=C(CCCCOc1cccc(-c2nnc(-c3ccccc3)s2)c1)NO , is 7.49

Lab book: pIC50 of O=C(CCCCCCOc1cccc(-c2nnc(-c3ccccc3Cl)s2)c1)NO noted as 7.52

// pIC50 value for O=C(CCCCCCOc1cccc(-c2nnc(-c3ccccc3)s2)c1)NO : 6.73

get_value(item= O=C(CCCCCCOc1ccc(-c2nnc(-c3ccccc3)s2)cc1)NO , readout=pIC50) returns 7.19

Sure, the documented pIC50 for O=C(CCCCCOc1cccc(-c2nnc(-c3ccccc3)s2)c1)NO is 7.70

* * *

target: Histone deacetylase (HDAC1 and HDAC2) (Homo sapiens, UniProt Q13547+Q92769); test: Inhibition of HDAC1/HDAC2 in human HeLa cell nuclear extract using Boc-Lys(Ac)-AMC as substrate and measured by fluorometric method; assay type: cell-based
reportedEndpoint: IC50 (nM)
Please reply with the bare figure in nM and do not write the unit itself.

smilesnotation=COc1cc(-c2nnc(-c3cccc(OCCCCCCC(=O)NO)c3)s2)cc(OC)c1OC reportedendpoint=IC50 unitofmeasure=nM experimentalresult=366
smilesnotation=O=C(CCCCOc1cccc(-c2nnc(-c3ccccc3Cl)s2)c1)NO reportedendpoint=IC50 unitofmeasure=nM experimentalresult=656

Notebook: O=C(CCCCOc1ccc(-c2nnc(-c3ccccc3)s2)cc1)NO , IC50 read as 362

Lab note: measured IC50 of O=C(CCCCCCOc1cccc(-c2nnc(-c3ccccc3Cl)s2)c1)NO was 168
